Tested system: UniProtKB P28222
Sequence (P28222 whole entry): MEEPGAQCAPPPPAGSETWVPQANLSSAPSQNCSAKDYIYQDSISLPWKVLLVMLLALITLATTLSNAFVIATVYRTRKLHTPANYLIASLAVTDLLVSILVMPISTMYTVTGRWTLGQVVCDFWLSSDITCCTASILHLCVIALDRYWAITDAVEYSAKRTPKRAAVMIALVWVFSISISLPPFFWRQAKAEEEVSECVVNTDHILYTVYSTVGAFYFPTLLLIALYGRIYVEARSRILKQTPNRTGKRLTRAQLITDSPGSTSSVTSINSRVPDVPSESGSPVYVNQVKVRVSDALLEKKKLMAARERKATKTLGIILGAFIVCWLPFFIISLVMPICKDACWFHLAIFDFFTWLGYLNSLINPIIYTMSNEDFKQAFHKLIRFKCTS
Assay comment: Binding affinity to human cloned 5-hydroxytryptamine 1B receptor in CHO cells by [3H]5-HT binding displacement.
Reported IC50 values for a set of compounds
Endpoint name: IC50

# Compound, Endpoint name, Observed
measured = [
    ("CN(C)CCc1c[nH]c2ccc(-n3cnnc3)cc12", "IC50", "1.4 nM"),
    ("OC[C@H](NC1CCN(CCCc2c[nH]c3ccc(-n4cnnc4)cc23)CC1)c1ccccc1", "IC50", "114 nM"),
    ("c1cc2[nH]cc(CCN3CCCC3)c2cc1-n1cnnc1", "IC50", "30.2 nM"),
    ("c1cc2[nH]cc(CCN3CCCCC3)c2cc1-n1cnnc1", "IC50", "568 nM"),
    ("CN(Cc1ccccc1)C1CCN(CCCc2c[nH]c3ccc(-n4cnnc4)cc23)CC1", "IC50", "145 nM"),
    ("O=C(c1ccc(F)cc1)C1CCN(CCn2c(=O)[nH]c3ccccc3c2=O)CC1", "IC50", "6500 nM"),
    ("c1ccc(CO[C@@H]2CCN(CCc3c[nH]c4ccc(-n5cnnc5)cc34)C2)cc1 (stereo in doubt; 4b)", "IC50", "146 nM"),
    ("c1ccc(CNC[C@@H]2CCN(CCc3c[nH]c4ccc(-n5cnnc5)cc34)C2)cc1", "IC50", "47 nM"),
    ("CN(Cc1ccccc1)C[C@@H]1CCN(CCc2c[nH]c3ccc(-n4cnnc4)cc23)C1", "IC50", "33 nM"),
    ("c1ccc(CO[C@@H]2CCN(CCc3c[nH]c4ccc(-n5cnnc5)cc34)C2)cc1 (stereo in doubt; 4c)", "IC50", "280 nM"),
    ("c1ccc(COC[C@@H]2CCN(CCc3c[nH]c4ccc(-n5cnnc5)cc34)C2)cc1", "IC50", "88 nM"),
    ("c1ccc(CNCC2CCN(CCc3c[nH]c4ccc(-n5cnnc5)cc34)C2)cc1 (single isomer, unassigned)", "IC50", "50 nM"),
    ("C[C@@H](NC1CCN(CCCc2c[nH]c3ccc(-n4cnnc4)cc23)CC1)c1ccccc1", "IC50", "35 nM"),
    ("c1ccc(CNC2CCN(CCCc3c[nH]c4ccc(-n5cnnc5)cc34)CC2)cc1", "IC50", "125 nM"),
    ("OC[C@H](NC1CCN(CCCc2c[nH]c3ccc(-n4cnnc4)cc23)CC1)c1ccc(F)cc1", "IC50", "185 nM"),
    ("CN(Cc1ccccc1)[C@@H]1CCN(CCc2c[nH]c3ccc(-n4cnnc4)cc23)C1", "IC50", "210 nM"),
    ("c1cc2[nH]cc(CCCN3CCCCC3)c2cc1-n1cnnc1", "IC50", "15 nM"),
    ("CN(Cc1ccccc1)CC1CCN(CCCc2c[nH]c3ccc(-n4cnnc4)cc23)CC1", "IC50", "28 nM"),
]

###

Tested system: Serotonin 1 receptors; 5-HT1B & 5-HT1D (Homo sapiens) (UniProt P28222+P28221)
Assay comment: Binding selectivity for 5-HT 1D/1B receptors
Format: protein assay
The entries below are paired with their reported Selectivity ratio.

# Structure string, Selectivity ratio
measured = [
    ("c1cc2[nH]cc(CCCN3CCCCC3)c2cc1-n1cnnc1", 0.6),
    ("CN(Cc1ccccc1)CC1CCN(CCCc2c[nH]c3ccc(-n4cnnc4)cc23)CC1", 29),
    ("CN(C)CCc1c[nH]c2ccc(-n3cnnc3)cc12", 4.7),
]
